Target: Human Polymorphonuclear Leukocyte Elastase (Homo sapiens, UniProt P08246)
Construct: Crude extract of human polymorphonuclear leukocytes (PMN) containing elastase activity; endogenous in cells; host or cells: human polymorphonuclear leukocytes (crude extract)
Sequence (P08246 30-247 limits assumed): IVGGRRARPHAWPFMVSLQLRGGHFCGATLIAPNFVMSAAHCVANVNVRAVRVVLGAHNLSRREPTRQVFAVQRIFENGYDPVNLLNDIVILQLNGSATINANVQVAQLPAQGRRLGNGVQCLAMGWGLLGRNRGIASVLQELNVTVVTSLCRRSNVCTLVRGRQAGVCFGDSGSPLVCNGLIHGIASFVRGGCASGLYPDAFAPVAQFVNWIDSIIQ
Experiment: Enzyme assay for the inhibition of human polymorphonuclear leukocyte elastase via hydrolysis of N-t-Boc-alanyl-alanyl-prolylalanine-p-nitroanilide
Format: biochemical
Details: Conc. 10 μg/ml; measured within 2 minutes; crude PMN extract, 0.2 mM Boc-AAPAN, pH 7.5
Description: Protocol--Enzyme Assays for the Inhibition of Human Polymorphonuclear Leukocyte Elastase Via Hydrolysis of N-t-Boc-alanyl-alanyl-prolylalanine-p-nitroanilide 0.05M TES (N-tris[hydroxymethyl]methyl-2-amino-ethanesulfonic acid) Buffer, pH 7.5. […] To 1.0 ml of 0.2 mM Boc-AAPAN in a cuvette, 0.01-0.1 ml of DMSO with or without inhibitor was added. […] 0.05 Milliliters of PMN extract was then added and the ΔOD/min at 410 mμ was measured and recorded. […]
QUANTITY: inhibition at 10 µg/mL (%)
One number for each entry, in %.

Worked cases, inhibition at 10 µg/mL given:
O=C(OCc1ccccc1)C1=C(SCc2ccccc2)CC2C(CO)C(=O)N12 (stereo not shown) [Benzyl]    93
CC(OC(=O)OCc1ccccc1[N+](=O)[O-])C1C(=O)N2C(C(=O)OCc3ccccc3[N+](=O)[O-])=CCC12 (stereo not shown)    88
CC(OC(=O)OCc1ccccc1[N+](=O)[O-])C1C(=O)N2C(C(=O)OCc3ccccc3[N+](=O)[O-])=C(c3ccc(CN=[N+]=[N-])cc3)CC12 (stereo not shown)    76

Next molecule, please.
For reference, reported inhibition at 10 µg/mL for CC(NC(=O)OCc1ccccc1[N+](=O)[O-])C1C(=O)N2C(C(=O)OCc3ccccc3[N+](=O)[O-])=CCC12 (stereo not shown) stands at 57

* * *

Target: Human Polymorphonuclear Leukocyte Elastase (Homo sapiens)
Construct: Crude extract of human polymorphonuclear leukocytes (PMN) containing elastase activity; endogenous in cells; host or cells: human polymorphonuclear leukocytes (crude extract)
Assay: Enzyme assay for the inhibition of human polymorphonuclear leukocyte elastase via hydrolysis of N-t-Boc-alanyl-alanyl-prolylalanine-p-nitroanilide
Assay type: biochemical
Details: Conc. 20 μg/ml; measured within 2 minutes; crude PMN extract, 0.2 mM Boc-AAPAN, pH 7.5
QUANTITY: inhibition at 20 µg/mL (%)
Numbers only, in %.

Known results for molecules:
CC(O)C1C(=O)N2C(C(=O)OCc3ccc([N+](=O)[O-])cc3)=C(SCCO)CC12 (stereo not shown)    84
CC=C1C(=O)N2C(C(=O)OCc3ccc([N+](=O)[O-])cc3)=C(SCCN3C(=O)c4ccccc4C3=O)CC12 (stereo not shown)    47
CC(O)C1C(=O)N2C(C(=O)OCc3ccc([N+](=O)[O-])cc3)=C(SCc3ccccn3)CC12 (stereo not shown)    100

Lab note: each molecule below needs its inhibition at 20 µg/mL filled in.
1. CC(OC(=O)OCc1ccccc1[N+](=O)[O-])C1C(=O)N2C(C(=O)OCc3ccccc3[N+](=O)[O-])=CCC12 (stereo not shown)
2. CC(O)C1C(=O)N2C(C(=O)OCc3ccc([N+](=O)[O-])cc3)=C(SCc3ccccc3)CC12 (stereo not shown)

Result:
1. 88
2. 50

// batch mode: one inhibition at 20 µg/mL value per listed entry
1. CC(O)C1C(=O)N2C(C(=O)OCc3ccc([N+](=O)[O-])cc3)=C(Sc3ccncc3)CC12 (stereo not shown)
2. CC(NC(=O)OCc1ccccc1[N+](=O)[O-])C1C(=O)N2C(C(=O)OCc3ccccc3[N+](=O)[O-])=CCC12 (stereo not shown)

Result:
1. 100
2. 72
